# Test system: COLO 320
# ASSAY_EXPLANATION: Antiproliferative activity against human COLO 320 assessed as reduction in cell viability incubated for 72 hrs by CellTitre-Glo assay
# Format: functional, cell-based
# CONDITION_CONTEXT: COLO 320, 72 h
pIC50: −log10 of the molar value.
MEASURED_ENDPOINT: pIC50

So what does the record say about pIC50 for O=C1NC(=O)C(c2cnc3ccccn23)=C1c1cn2c3c(cc(F)cc13)CN(C(=O)N1CCCCC1)CC2 ?
< 4.70

* * *

# Test system: LNCaP
# ASSAY_EXPLANATION: Antiproliferative activity against human LNCaP assessed as reduction in cell viability incubated for 72 hrs by CellTitre-Glo assay
# Assay type: functional, cell-based
MEASURED_ENDPOINT: IC50 (nM)
Answer with a number only, understood to be in nM.

So what does the record say about IC50 for O=C1NC(=O)C(c2cnc3ccccn23)=C1c1cn2c3c(cc(F)cc13)CN(C(=O)N1CCCCC1)CC2 ?
150

* * *

# ASSAY_EXPLANATION: Half life in mouse plasma CD1 nu/nu mouse at 5 mg/kg, iv measured up to 120 mins by HPLC/MS analysis
# Assay type: ADME, organism-based
MEASURED_ENDPOINT: half-life (min)
Answer with a number only, understood to be in min.

So what does the record say about half-life for O=C1NC(=O)C(c2cnc3ccccn23)=C1c1cn2c3c(cc(F)cc13)CN(C(=O)N1CCCCC1)CC2 ?
36

* * *

Attribute: pIC50
# System: CHL-1
# ASSAY_EXPLANATION: Antiproliferative activity against human CHL-1 cells assessed as reduction in cell viability incubated for 72 hrs by CellTitre-Glo assay
# Type: functional, cell-based
# CONDITION_CONTEXT: CHL-1, 72 h
pIC50 here: minus log base 10 of the concentration, concentration in moles per litre.

So what does the record say about pIC50 for CC(=O)O/N=C1/C(=C2/C(=O)Nc3cc(Br)ccc32)Nc2ccccc21 [6-BROMOINDIRUBIN-3'-ACETOXIME] ?
5.84

Same lookup for O=C1NC(=O)C(c2cnc3ccccn23)=C1c1cn2c3c(cc(F)cc13)CN(C(=O)N1CCCCC1)CC2 [LY-2090314] , please.
6.96

* * *

# System: NCI-H460
# ASSAY_EXPLANATION: Antiproliferative activity against human H460 assessed as reduction in cell viability incubated for 72 hrs by CellTitre-Glo assay
# Assay type: functional, cell-based
# CONDITION_CONTEXT: NCI-H460, 72 h
MEASURED_ENDPOINT: IC50 (µM)
Answer with a number only, understood to be in µM.

So what does the record say about IC50 for O=C1NC(=O)C(c2cnc3ccccn23)=C1c1cn2c3c(cc(F)cc13)CN(C(=O)N1CCCCC1)CC2 ?
13.2

* * *

# Tested on: A549
# ASSAY_EXPLANATION: Antiproliferative activity against human A549 assessed as reduction in cell viability incubated for 72 hrs by CellTitre-Glo assay
# Assay type: functional, cell-based
# CONDITION_CONTEXT: A549, 72 h
MEASURED_ENDPOINT: pIC50
pIC50 here: minus log base 10 of the concentration, concentration in moles per litre.

So what does the record say about pIC50 for O=C1NC(=O)C(c2cnc3ccccn23)=C1c1cn2c3c(cc(F)cc13)CN(C(=O)N1CCCCC1)CC2 ?
5.00
